Exercise: for every item that follows, state its recorded IC50.
# Tested on: Primary human T-cells
# assay: Primary Human T-Cell Proliferation Assay Stimulated with IL-2 (CellTiter-Glo)
# Assay type: cell-based
# testContext: primary human T-cell proliferation stimulated with IL-2; read-out: IC50, Example 42
Counter-ions that a name gives are not always drawn.
Your answer should be a plain number; it is taken to be in nM.

Record NC(=O)CCc1ccc(Nc2nc(Nc3cccc(S(N)(=O)=O)c3)ncc2F)cc1 . Reported IC50: 218

// IC50 lookup, molecule = CCC(=O)NS(=O)(=O)c1cccc(Nc2ncc(F)c(Nc3ccc(OCc4nc(C)no4)cc3)n2)c1 [Compound I-273, Sodium Salt] , result: 193

// CC(Oc1ccc(Nc2nc(Nc3cccc(S(N)(=O)=O)c3)ncc2F)cc1)C(N)=O (racemic) : IC50 value = 301

Input CCC(=O)NS(=O)(=O)c1cc(Nc2ncc(F)c(Nc3ccc(CCC#N)c(Cl)c3)n2)ccc1C [III-29, Sodium salt] . Output IC50: 12400

Form field IC50, entry Cc1noc(COc2cccc(Nc3nc(Nc4ccc(C)c(S(N)(=O)=O)c4)ncc3F)c2)n1 : 1910

Entry under test: NS(=O)(=O)c1cccc(Nc2ncc(F)c(Nc3cccc(OCc4cccnc4)c3)n2)c1 . Its IC50 was 1130

So for N#CCCc1ccc(Nc2nc(Nc3ccc(F)c(S(N)(=O)=O)c3)ncc2F)cc1 , the logged IC50 turned out to be 342

The reported value for N#CCc1ccc(Nc2nc(Nc3ccc(F)c(S(N)(=O)=O)c3)ncc2F)cc1 in terms of IC50 is 922

In plain terms, CN1CCN(S(=O)(=O)c2ccc(Nc3ncc(F)c(Nc4ccc(OCC#N)cc4)n3)cc2)CC1 has a documented IC50 of 1490

Given item Cc1ccc(Nc2ncc(F)c(Nc3cccc(OC4CCCN(C)C4)c3)n2)cc1S(N)(=O)=O (racemic) , the value recorded as its IC50 is 1140

The molecule Cc1ccc(Nc2ncc(F)c(Nc3ccc(CCC#N)cc3)n2)cc1S(N)(=O)=O showed IC50 equal to 107

IC50 in this record for Cc1cc(Nc2nc(Nc3ccc(S(N)(=O)=O)cc3)ncc2F)ccc1OC(C)C(N)=O (racemic) : 2440

// field: IC50; key: C[Si](C)(C)C#Cc1cnc(Nc2cccc(S(N)(=O)=O)c2)nc1Nc1ccc(OCC#N)cc1 ; value = 1180

NS(=O)(=O)c1cccc(Nc2ncc(F)c(Nc3ccc(OCc4ccncc4)cc3)n2)c1 yielded IC50 of 55.6

Form: molecule = COc1cc(Nc2ncc(F)c(Nc3ccc(OC(C)C#N)cc3)n2)ccc1S(N)(=O)=O (racemic) ; IC50 = 573

Note to self: IC50 recorded for N#CCOc1cccc(Nc2nc(Nc3ccc(S(N)(=O)=O)cc3)ncc2F)c1 was 987

The recorded IC50 for Cc1noc(COc2cccc(Nc3nc(Nc4cccc(S(N)(=O)=O)c4)ncc3F)c2)n1 is 558

Consider Cc1ccc(Nc2ncc(F)c(Nc3ccc(CCC(N)=O)cc3)n2)cc1S(N)(=O)=O . Its measured IC50 is 366

Measured IC50, COc1cc(Nc2ncc(F)c(Nc3ccc(OC(C)C#N)c(C)c3)n2)ccc1S(N)(=O)=O (racemic) : 1880

Data point: Cc1noc(COc2ccc(Nc3nc(Nc4cccc(S(N)(=O)=O)c4)ncc3F)cc2)n1 ; IC50 = 55.4

Record summary for NS(=O)(=O)c1cccc(Nc2ncc(F)c(Nc3ccc(OCc4ccccn4)cc3)n2)c1 : reported IC50 = 136

Reported IC50 of CC(C)(Oc1ccc(Nc2nc(Nc3cccc(S(N)(=O)=O)c3)ncc2F)cc1)C(N)=O : 610

molecule Cc1noc(COc2ccc(Nc3nc(Nc4ccc(S(N)(=O)=O)cc4)ncc3F)cc2)n1 [Compound I-268] , IC50 observed: 140

IC50 for Cc1cc(Nc2nc(Nc3cccc(S(N)(=O)=O)c3)ncc2F)ccc1OCC#N is 88.2

Per the records, this molecule ( Cc1ccc(Nc2ncc(F)c(Nc3ccc(CNC(=O)C4CC4)cc3)n2)cc1S(N)(=O)=O ) has IC50 equal to 898

IC50 recorded for this molecule, Cc1ccc(Nc2ncc(F)c(Nc3ccc(CC#N)cc3)n2)cc1S(N)(=O)=O , is 195

Documented IC50 of Cc1ccc(Nc2ncc(F)c(Nc3ccc(OCC#N)cc3)n2)cc1S(N)(=O)=O : 66.2

Per the records, this molecule ( Cc1cc(COc2ccc(Nc3nc(Nc4ccc(C)c(S(N)(=O)=O)c4)ncc3F)cc2Cl)no1 ) has IC50 equal to 2680

Per the records, this molecule ( NS(=O)(=O)c1cccc(Nc2ncc(F)c(Nc3ccc(CNC(=O)C4CC4)cc3)n2)c1 ) has IC50 equal to 641

Item: NS(=O)(=O)c1cccc(Nc2ncc(F)c(Nc3ccc(Cn4ccnc4)cc3)n2)c1 | IC50: 204

Data point: Cc1ccc(Nc2ncc(F)c(Nc3cc(C)c(OC(C)C(N)=O)c(C)c3)n2)cc1S(N)(=O)=O (racemic) ; IC50 = 342

Briefly, IC50 measured for COc1cc(Nc2ncc(F)c(Nc3cccc(OCC#N)c3)n2)ccc1S(N)(=O)=O : 502

###

# Tested on: Primary human T-cells
# assay: Primary Human T-Cell Proliferation Assay Stimulated with IL-2 (CellTiter-Glo)
# Type: cell-based
# testContext: primary human T-cell proliferation stimulated with IL-2; read-out: IC50, Example 42
measuredProperty: IC50 (nM)
Provide the reading as a plain figure in nM.

So for NS(=O)(=O)c1ccc(Nc2ncc(F)c(Nc3ccc(OCc4ccccn4)cc3)n2)cc1 , the logged IC50 turned out to be 439

Briefly, IC50 measured for Cc1ccc(Nc2ncc(F)c(Nc3ccc(OC(C)(C)C(N)=O)cc3)n2)cc1S(N)(=O)=O : 510

Summary for this compound, N#CCOc1ccc(Nc2nc(Nc3ccc(Cl)c(S(N)(=O)=O)c3)ncc2F)cc1 : IC50 is 258

The compound Cc1cc(COc2ccc(Nc3nc(Nc4ccc(C)c(S(N)(=O)=O)c4)ncc3F)cc2)n(Cc2ccccc2)n1 showed IC50 equal to 3030

Form field IC50, entry N#CCc1ccc(Nc2nc(Nc3cccc(S(N)(=O)=O)c3)ncc2F)cc1 : 171

response.value for Cc1nc(COc2ccc(Nc3nc(Nc4ccc(S(N)(=O)=O)cc4)ncc3F)cc2)cs1 (field: IC50) = 314

Entry Cc1ccc(Nc2ncc(F)c(Nc3ccc(OCC#N)cc3)n2)cc1S(=O)(=O)NC(=O)C(C)C , IC50 reported as 3680

Sure, the documented IC50 for Cc1ccc(Nc2ncc(F)c(Nc3cc(C)c(OC(C)C#N)c(C)c3)n2)cc1S(N)(=O)=O (racemic) is 303

Lab book: IC50 of Cc1ccc(Nc2ncc(F)c(Nc3ccc(NC(=O)CC#N)c(Cl)c3)n2)cc1S(N)(=O)=O noted as 1760

Lookup result for CCN(CC)CCNS(=O)(=O)c1ccc(Nc2ncc(F)c(Nc3ccc(OCc4cc(C)on4)c(C)c3)n2)cc1 ; measured IC50: 1740

// IC50 value for Cc1ccc(Nc2ncc(Br)c(Nc3ccc(OCC#N)cc3)n2)cc1S(N)(=O)=O : 11.5

compound Cc1cc(Nc2nc(Nc3ccc(S(N)(=O)=O)cc3)ncc2F)ccc1OC(C)C#N (racemic) , IC50 observed: 2170

// field: IC50; key: CCC(=O)NS(=O)(=O)c1cc(Nc2ncc(F)c(Nc3ccc(C=CC#N)c(Cl)c3)n2)ccc1C ; value = 17400

Form field IC50, entry CC(C#N)Oc1ccc(Nc2nc(Nc3ccc(F)c(S(N)(=O)=O)c3)ncc2F)cc1 (racemic) : 482

For reference, reported IC50 for Cc1cc(COc2ccc(Nc3nc(Nc4cc(Cl)c(C)c(S(N)(=O)=O)c4)ncc3F)cc2F)no1 stands at 625

Entry CCN(CC)CCNS(=O)(=O)c1ccc(Nc2ncc(F)c(Nc3ccc(Cn4ccnc4)cc3)n2)cc1 — recorded IC50 = 1900

###

# Tested on: IL-4 stimulated expression of CD23 in human Ramos B cells (JAK-1 and JAK-3)
# assay: Assay for Ramos B-Cell Line Stimulated with IL-4 (CD23 upregulation, FACS)
# Format: cell-based
# testContext: Ramos B-cell line stimulated with IL-4; CD23 expression by FACS; Hydrochloride Salt; read-out: IC50, Example 41
Structures can show the parent of a compound that is named as a salt.
I'd appreciate it if you could supply IC50 values for the items below.
Write your answer as a measured quantity: the number, then the unit.

Reported IC50 for NS(=O)(=O)c1cccc(Nc2ncc(F)c(Nc3ccc(Cc4ccncc4)cc3)n2)c1 [III-73, Hydrochloride Salt] was 131 nM

Consider NS(=O)(=O)c1cccc(Nc2ncc(F)c(Nc3ccc(OCc4ccccn4)cc3)n2)c1 [Compound I-196, Hydrochloride Salt] . Its measured IC50 is 124 nM

###

# Tested on: Primary human T-cells
# assay: Primary Human T-Cell Proliferation Assay Stimulated with IL-2 (CellTiter-Glo)
# Assay type: cell-based
# testContext: Homo sapiens, T-cell, primary human T-cells stimulated with IL-2, proliferation; read-out: IC50, Example 42
Mark 1.0 for IC50 under 700 nM, 0.0 if at or over.

# input API: query returns whether the compound falls strictly under 700 nM in IC50. Query: N#CCc1c[nH]c2c(Nc3nc(Nc4cccc(S(N)(=O)=O)c4)ncc3F)cccc12 [IX-15]
# output 1.0

# input Please indicate whether the reported IC50 of Cc1ccc(Nc2ncc(F)c(Nc3ccc(CCCCO)cc3)n2)cc1S(N)(=O)=O [VI-90] is strictly below 700 nM.
# output 0.0

# input IC50 under 700 nM? Item: Cc1ccc2cc(Nc3nc(Nc4cccc(S(N)(=O)=O)c4)ncc3F)ccc2n1 [VII-72]
# output 1.0

# input Is IC50 of Cc1ccc(Nc2ncc(F)c(Nc3cccc4cccnc34)n2)cc1S(N)(=O)=O [VII-77] strictly below 700 nM?
# output 0.0

# input Strictly below 700 nM in IC50? NS(=O)(=O)c1ccc(Nc2ncc(F)c(Nc3ccc(Cl)c(Cl)c3)n2)cc1 [VI-109]
# output 0.0

# input Dear colleague, could you confirm whether IC50 of N#CCN1C(=O)CSc2ccc(Nc3nc(Nc4cccc(S(N)(=O)=O)c4)ncc3F)cc21 [Compound V-12] falls below 700 nM? Thanks.
# output 0.0
